target: PD-L1 on CHO-PD-L1 cells (Promega PD-1/PD-L1 Blockade Bioassay) (UniProt Q9NZQ7 19-290, limits assumed); experiment: cell-based or functional assay
Sequence (Q9NZQ7 19-290 limits assumed): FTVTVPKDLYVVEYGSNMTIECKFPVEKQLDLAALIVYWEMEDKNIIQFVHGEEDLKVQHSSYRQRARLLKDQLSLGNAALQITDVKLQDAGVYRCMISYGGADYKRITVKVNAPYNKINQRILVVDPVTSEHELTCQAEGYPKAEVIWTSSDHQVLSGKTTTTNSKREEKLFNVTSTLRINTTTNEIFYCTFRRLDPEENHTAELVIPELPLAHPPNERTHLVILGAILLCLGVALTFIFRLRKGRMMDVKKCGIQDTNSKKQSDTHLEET
endpoint.label: EC50 (read off the curve)

* L1-R2-4-55 (antibody, human IgG1, kappa, V domains shown) VH: EVQLVESGGGLVQPGGSLRLSCAASGFTFSDSWIHWVRQAPGKGLEWVGWISPYGGSTYYADGMRSRFTISADTSKNTAYLQMNSLRAEDTAVYYCARRHWPGGFDYWGQGTLVTVSS VL: EIVLTQSPSSLSASVGDRVTITCLASQTIGTWLAWYQQKPGKSPQLLIYAASTLQSGVPSRFSGSGSGTDFTLTISSLQPEDVATYYCQQYYSTPRTFGQGTKVEIKR | ~2 µg/mL
* L1-R2-4-71 (antibody, human IgG1, kappa, V domains shown, also called parental anti-PD-L1 antibody L1-R2-4-71) VH: EVQLVESGGGLVQPGGSLRLSCAASGFTFSDSWIHWVRQAPGKGLEWVGWISPYGGSTYYADSYRSRFTISADTSKNTAYLQMNSLRAEDTAVYYCARRHWPGGFDYWGQGTLVTVSS VL: EIVLTQSPSSLSASVGDRVTITCLASQTIGTWLAWYQQKPGKSPQLLIYAASTLQSGVPSRFSGSGSGTDFTLTISSLQPEDVATYYCQQYYSTPRTFGQGTKVEIKR | ~2 µg/mL
* L1-R2-4-46 (antibody, human IgG1, kappa, V domains shown) VH: EVQLVESGGGLVQPGGSLRLSCAASGFTFSDSWIHWVRQAPGKGLEWVGWISPYGGSTYYADSLGDRFTISADTSKNTAYLQMNSLRAEDTAVYYCARRHWPGGFDYWGQGTLVTVSS VL: EIVLTQSPSSLSASVGDRVTITCLASQTIGTWLAWYQQKPGKSPQLLIYAASTLQSGVPSRFSGSGSGTDFTLTISSLQPEDVATYYCQQYYSTPRTFGQGTKVEIKR | ~1 µg/mL
* L1-R2-4-47 (antibody, human IgG1, kappa, V domains shown) VH: EVQLVESGGGLVQPGGSLRLSCAASGFTFSDSWIHWVRQAPGKGLEWVGWISPYGGSTYYADHLSQRFTISADTSKNTAYLQMNSLRAEDTAVYYCARRHWPGGFDYWGQGTLVTVSS VL: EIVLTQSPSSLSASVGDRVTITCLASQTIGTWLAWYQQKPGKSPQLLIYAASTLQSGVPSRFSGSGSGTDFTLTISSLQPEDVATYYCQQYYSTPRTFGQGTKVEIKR | ~2 µg/mL
